measurement_notes: Single dose PK, phase 1, healthy European men
Assay type: in vivo, human
setup_conditions: male, human, plasma, single SC 0.3 mg, geometric mean, read-out: Vz/F
Where a SMILES comes first, the peptide text is derived from it. [ ]: non-standard residue; d: D form. Arg(Me) = CNC(=N)NCCC[C@H](N)C(=O)O; Hyp = O=C(O)[C@@H]1C[C@@H](O)CN1; azaGly = NNC(=O)O
observed_property: Vd/F (L)
Respond numerically; units are L and should not be typed.

In one line, give reported Vd/F of the entry CC(=O)O.CNC(=N)NCCC[C@H](NC(=O)[C@H](CC(C)C)NC(=O)NNC(=O)[C@H](Cc1ccccc1)NC(=O)[C@@H](NC(=O)[C@H](CC(N)=O)NC(=O)[C@@H]1C[C@@H](O)CN1C(=O)[C@@H](Cc1ccc(O)cc1)NC(C)=O)[C@@H](C)O)C(=O)N[C@@H](Cc1c[nH]c2ccccc12)C(N)=O [API-MA] (Ac-[dY][Hyp]NTF[azaGly]L[Arg(Me)]W-NH2) .
114

Origin of the recorded values: patent US11013780B2
